Molecular target: human GLP-2 receptor (Homo sapiens, UniProt O95838, D470N)
Construct: host or cells: HEK293
Sequence (O95838 whole entry D470N): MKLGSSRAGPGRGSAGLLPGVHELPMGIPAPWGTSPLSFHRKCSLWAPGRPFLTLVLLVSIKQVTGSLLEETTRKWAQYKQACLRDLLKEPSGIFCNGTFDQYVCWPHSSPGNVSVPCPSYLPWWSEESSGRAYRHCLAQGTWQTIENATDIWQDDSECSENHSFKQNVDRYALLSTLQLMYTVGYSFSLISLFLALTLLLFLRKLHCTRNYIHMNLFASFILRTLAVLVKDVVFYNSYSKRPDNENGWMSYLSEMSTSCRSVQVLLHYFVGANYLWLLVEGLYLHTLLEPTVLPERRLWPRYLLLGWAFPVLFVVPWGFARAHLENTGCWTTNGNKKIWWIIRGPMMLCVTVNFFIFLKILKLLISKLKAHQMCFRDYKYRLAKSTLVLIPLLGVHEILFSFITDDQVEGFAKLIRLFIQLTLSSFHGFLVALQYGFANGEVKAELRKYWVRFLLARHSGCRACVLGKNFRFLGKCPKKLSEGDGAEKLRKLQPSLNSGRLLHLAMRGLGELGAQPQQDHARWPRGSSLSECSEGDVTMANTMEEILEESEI
Assay: GLP-2 receptor efficacy assay (cAMP AlphaScreen)
Assay type: cell-based
Conditions: HEK293 cells expressing hGLP-2 receptor, cAMP response; read-out: GLP-2R EC50
pEC50: −log10 of the molar value.
valueKind: pEC50

Completed entries (count: 3):
| substance | pEC50 |
| --- | --- |
| H-HGEGTFTSDLSKQMEGQAVRDFIEWLIQTKITD-OH [Compound 5] | 9.70 |
| H-HGEGSFSSDLSTILENKAARDFIEWLIQTKITD-OH [Compound 9] | 9.70 |
| H-HGEGTFTSDLSKQMESKAARDFIEWLIQTKITD-OH [Compound 6] | 9.70 |

[A] H-HGDGSFSSELATILDGQAARDFIAWLIQTKITD-OH [Compound 11]
[B] H-HGEGTFTSDLSTILENKAARDFIEWLIQTKITD-OH [Compound 8]
[C] H-HGDGSFSSEMNTILDSQAARDFINWLIQTKITD-OH [Compound 4]
(Q) Highest pEC50 first, then in falling order down to the smallest. A complete answer lists every label in the requested sequence.
(A) B, C, A
(B: 11.10, C: 10.22, A: 9.70)
